target: Beta-secretase 1 (Homo sapiens, UniProt P56817); test: Binding affinity for human brain memapsin 2
Sequence (P56817 whole entry): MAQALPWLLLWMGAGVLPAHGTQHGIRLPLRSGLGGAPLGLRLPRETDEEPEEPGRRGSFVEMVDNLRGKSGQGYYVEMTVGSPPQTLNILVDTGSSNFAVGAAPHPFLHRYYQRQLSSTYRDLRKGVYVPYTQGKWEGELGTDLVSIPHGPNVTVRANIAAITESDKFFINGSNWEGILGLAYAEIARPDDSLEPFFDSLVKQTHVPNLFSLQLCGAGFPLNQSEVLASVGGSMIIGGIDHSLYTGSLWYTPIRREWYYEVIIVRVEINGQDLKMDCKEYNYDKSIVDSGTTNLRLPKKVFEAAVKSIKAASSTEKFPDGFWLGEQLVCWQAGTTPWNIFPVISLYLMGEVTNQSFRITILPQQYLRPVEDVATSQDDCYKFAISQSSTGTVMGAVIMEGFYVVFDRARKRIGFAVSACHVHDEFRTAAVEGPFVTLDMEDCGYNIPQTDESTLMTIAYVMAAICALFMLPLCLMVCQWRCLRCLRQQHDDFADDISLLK
property-label: Ki (nM)

Worked examples follow.
smiles-repr | property-label | result-value
CC(C)C[C@H](NC(=O)[C@@H]1CC(=O)NC/C=C/COC(=O)N[C@@H](C(C)C)C(=O)N1)[C@@H](O)C[C@@H](C)C(=O)N[C@H](C(=O)NCc1ccccc1)C(C)C | Ki | 87.2
C=CCCCOC(=O)N[C@H](C(=O)N[C@@H](CC(=O)NCC=C)C(=O)N[C@@H](CC(C)C)[C@@H](O)C[C@@H](C)C(=O)N[C@H](C(=O)NCc1ccccc1)C(C)C)C(C)C | Ki | 112

[I] CC(C)C[C@H](NC(=O)[C@@H]1CC(=O)NCCCCCOC(=O)N[C@@H](C(C)C)C(=O)N1)[C@@H](O)C[C@@H](C)C(=O)N[C@H](C(=O)NCc1ccccc1)C(C)C
[II] CC(C)C[C@H](NC(=O)[C@@H]1CC(=O)NC/C=C/CCOC(=O)N[C@@H](C(C)C)C(=O)N1)[C@@H](O)C[C@@H](C)C(=O)N[C@H](C(=O)NCc1ccccc1)C(C)C
# min-compare on Ki between I and II # reply format: chosen label
II
(II: 28.4 nM, I: 108 nM)

----------
Target protein (sequence): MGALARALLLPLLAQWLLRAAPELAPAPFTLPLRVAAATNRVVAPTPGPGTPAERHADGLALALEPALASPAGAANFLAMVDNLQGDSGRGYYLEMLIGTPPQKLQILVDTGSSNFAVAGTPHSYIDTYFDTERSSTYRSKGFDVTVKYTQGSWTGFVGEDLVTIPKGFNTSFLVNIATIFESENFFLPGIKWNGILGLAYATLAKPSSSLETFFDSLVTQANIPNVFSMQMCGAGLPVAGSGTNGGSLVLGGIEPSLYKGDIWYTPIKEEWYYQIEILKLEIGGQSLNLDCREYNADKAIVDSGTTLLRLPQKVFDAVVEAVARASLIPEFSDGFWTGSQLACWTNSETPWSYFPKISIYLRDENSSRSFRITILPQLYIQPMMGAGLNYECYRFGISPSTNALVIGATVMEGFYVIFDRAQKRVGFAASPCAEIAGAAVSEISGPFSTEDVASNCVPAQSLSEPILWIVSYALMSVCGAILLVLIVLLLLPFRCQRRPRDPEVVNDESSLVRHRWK
property-label: Ki (nM)
I only need the number, in nM, no unit after it.

Name the recorded Ki of the molecule listed here: CC(C)C[C@H](NC(=O)[C@@H]1CC(=O)NCCCCCCOC(=O)N[C@@H](C(C)C)C(=O)N1)[C@@H](O)C[C@@H](C)C(=O)N[C@H](C(=O)NCc1ccccc1)C(C)C
4.5
